assay: Drug concentration in mouse plasma xenografted with HPAC cells at 300 mg/kg, po measured after 24 hrs; assay type: ADME, organism-based
property_measured: concentration at 24 h

Query: Provide only the value of recorded concentration at 24 h for `Cc1cnc(-c2nc3c(F)c(-c4cccc(Cl)c4C)c(CCC#N)cc3c3c2cc([C@@H](C)N2CCOCC2=O)n3[C@H]2[C@H]3CN[C@@H]2C3)cn1`
Result: ~8.5 µM

###

target: GTPase KRas (Homo sapiens, UniProt P01116, G12D); test: Inhibition of bodipy-loaded KRAS G12D mutant (unknown origin) assessed as GDP-GTP exchange preincubated for 4 hrs followed by GppNHp and SOS1 addition and measured after 2 hrs by fluorescence based plate reader analysis
property_measured: IC50

>  <structure_string>
Cc1cnc(-c2nc3c(F)c(-c4cccc5ccc(F)cc45)c(CCC#N)cc3c3c2cc([C@@H](C)N2CCOCC2=O)n3[C@H]2[C@H]3CN[C@@H]2C3)cn1

>  <IC50>
2.8 nM

$$$$
>  <structure_string>
CN(C)C(=O)CCc1nc2c(N3CC(C)(N(C)C)C3)nc3c(F)c(-c4cc(O)cc5ccccc45)c(CCC#N)cc3c2n1[C@H]1[C@H]2CN[C@@H]1C2

>  <IC50>
2.9 nM

$$$$
>  <structure_string>
CN(C)C1CN(c2nc(N3CC4CCC(C3)N4)c3cc(Cl)c(-c4cc(O)cc5ccccc45)c(F)c3n2)C1

>  <IC50>
704 nM

$$$$

--- query ---
Query: Provide only the value of recorded IC50 for `CN(C)C(=O)CCc1nc2c(N3CC(N(C)C)C3)nc3c(F)c(-c4cc(O)cc5ccccc45)c(CCC#N)cc3c2n1[C@H]1[C@H]2CN[C@@H]1C2`
Result: 2.9 nM
